Details: buffer; pH 7.4; 200.0 µM
PROPERTY NAME: solubility kinetic

COMPOUND: Cc1ccccc1/C=C/c1cccc[n+]1C.[I-]
PROPERTY NAME: solubility kinetic
READOUT VALUE: > 50.6 µg/mL
//
COMPOUND: Cc1ccc(C(=O)C(C)OC(=O)Cn2c(C)csc2=O)cc1 (stereo unspecified)
PROPERTY NAME: solubility kinetic
READOUT VALUE: > 47.9 µg/mL
//
COMPOUND: O=c1[nH]cnc(O)c1C(c1ccc(F)cc1)c1c(O)nc[nH]c1=O
PROPERTY NAME: solubility kinetic
READOUT VALUE: > 49.5 µg/mL
//
COMPOUND: CSc1ccc(CN(C)C(=O)c2cc(=O)c3ccccc3o2)cc1
PROPERTY NAME: solubility kinetic
READOUT VALUE: > 50.9 µg/mL
//
COMPOUND: COc1cc(Cl)c(C)cc1NC(=O)CN(C)C1CCS(=O)(=O)C1 (stereo unspecified)
PROPERTY NAME: solubility kinetic
READOUT VALUE: > 54.1 µg/mL
//
COMPOUND: NC(=O)C1(C(N)=O)OC1c1ccc(Cl)c(Cl)c1 (stereo unspecified)
PROPERTY NAME: solubility kinetic
READOUT VALUE: > 41.3 µg/mL
